- Assayed System: human VPS34 (Homo sapiens (Human))
- Sequence (Q8NEB9 whole entry): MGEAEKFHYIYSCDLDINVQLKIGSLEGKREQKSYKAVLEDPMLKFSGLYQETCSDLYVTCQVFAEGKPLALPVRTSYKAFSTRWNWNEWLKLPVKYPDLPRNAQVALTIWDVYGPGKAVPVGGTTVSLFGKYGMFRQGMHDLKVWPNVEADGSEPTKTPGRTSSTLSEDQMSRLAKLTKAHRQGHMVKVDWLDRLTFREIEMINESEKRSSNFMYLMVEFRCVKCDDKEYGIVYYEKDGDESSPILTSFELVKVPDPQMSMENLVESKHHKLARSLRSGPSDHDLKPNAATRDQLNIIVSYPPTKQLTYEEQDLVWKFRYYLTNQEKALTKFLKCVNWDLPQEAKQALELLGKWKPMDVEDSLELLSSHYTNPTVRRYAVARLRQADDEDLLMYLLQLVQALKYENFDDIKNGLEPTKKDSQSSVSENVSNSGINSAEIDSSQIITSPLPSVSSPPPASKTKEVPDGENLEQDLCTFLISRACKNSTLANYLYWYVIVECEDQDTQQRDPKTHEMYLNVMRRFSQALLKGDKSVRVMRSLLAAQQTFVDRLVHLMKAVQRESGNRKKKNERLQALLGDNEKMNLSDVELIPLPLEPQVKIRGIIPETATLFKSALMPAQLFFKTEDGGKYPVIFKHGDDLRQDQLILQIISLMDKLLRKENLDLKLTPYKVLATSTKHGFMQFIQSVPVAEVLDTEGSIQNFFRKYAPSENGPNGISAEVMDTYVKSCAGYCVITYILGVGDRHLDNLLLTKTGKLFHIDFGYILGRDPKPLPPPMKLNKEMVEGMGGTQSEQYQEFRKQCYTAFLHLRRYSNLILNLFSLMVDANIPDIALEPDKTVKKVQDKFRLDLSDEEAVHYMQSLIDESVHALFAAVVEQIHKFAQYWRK
- Assay: Human VPS34 enzyme assay (Adapta TR-FRET ADP detection)
- Assay type: biochemical
- Setup Conditions: IC50 range class
Could you please report measured IC50 for the items listed next?

I'd like to know its IC50. The compound in question is CC(=O)Nc1cc(-c2cnc(C)c(NS(=O)(=O)c3c(F)cccc3F)c2)ccn1
< 10 nM

Quick one: IC50 for CC(=O)Nc1cc(-c2cc(OS(=O)(=O)N(C)C)c3ccnn3c2)ccn1 ?
< 10 nM

Which IC50 is reported for this compound? CC(=O)Nc1cc(-c2cnc(C)c(N3CC(NCc4ccccc4)CS3(=O)=O)c2)ccn1 (centres unmarked)
10 to 50 nM

Any idea what its IC50 is? The compound is CC(=O)Nc1cc(-c2cnc(Cl)c(S(=O)(=O)NC(C)(C)C)c2C)ccn1
10 to 50 nM

Could you share which IC50 value was measured for CC(=O)Nc1cc(-c2cnc(Cl)c(NS(=O)(=O)c3ccc(C(F)(F)F)cc3Cl)c2C)ccn1 ?
10 to 50 nM

Find the recorded IC50 belonging to Cc1nccc(Nc2cc(-c3cc(NC(=O)N4CC(F)(F)C4)c4ccnn4c3)ccn2)n1 and report it.
10 to 50 nM

// IC50 lookup, key: CC(=O)Nc1cc(-c2cnc(C#N)c(NS(=O)(=O)c3ccc(F)cc3F)c2)ccn1
< 10 nM

Field request: IC50 | item: COC(=O)Nc1cc(-c2cnc(N)c(S(=O)(=O)C(C)C)c2)ccn1
< 10 nM
